Target: UniProt:P08684
Sequence (P08684 whole entry): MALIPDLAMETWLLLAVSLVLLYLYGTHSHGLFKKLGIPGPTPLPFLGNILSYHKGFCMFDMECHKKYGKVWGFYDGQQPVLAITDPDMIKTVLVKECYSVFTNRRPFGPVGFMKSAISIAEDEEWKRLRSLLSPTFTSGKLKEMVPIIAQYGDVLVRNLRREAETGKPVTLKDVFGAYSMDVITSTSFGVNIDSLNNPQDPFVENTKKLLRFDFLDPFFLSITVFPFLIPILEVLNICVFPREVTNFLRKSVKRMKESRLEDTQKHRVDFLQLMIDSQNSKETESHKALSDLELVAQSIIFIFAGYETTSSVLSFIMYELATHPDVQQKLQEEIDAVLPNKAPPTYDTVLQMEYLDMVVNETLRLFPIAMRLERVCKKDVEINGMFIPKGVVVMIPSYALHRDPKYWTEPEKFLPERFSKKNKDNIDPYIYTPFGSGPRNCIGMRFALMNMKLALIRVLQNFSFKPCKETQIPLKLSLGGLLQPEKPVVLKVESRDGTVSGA
Measured AC50 of individual entries
property.label: AC50

>>> observed_measurement("NS(=O)(=O)Cc1noc2ccccc12")
"31.6 µM (inconclusive)"
>>> observed_measurement("COc1ccc(N2CCN(C(S)=Nc3cc(C)cc(C)c3)CC2)cc1")
"2.51 µM (inconclusive)"
>>> observed_measurement("COc1ccc(CNc2cc(-c3ccccc3CN(C)C)ncn2)c(OC)c1")
"15.8 µM (inconclusive)"
>>> observed_measurement("COc1cccc(C(=O)C2=C(O)C(=O)N(c3ccccn3)C2c2ccc(OC)c(OC)c2)c1 (stereo not given)")
"17.8 µM (inconclusive)"
>>> observed_measurement("CCn1c(O)c(/C=N/N=C2CCCC2)c2ccc(C3=NNC(=O)CC3)cc21")
"7.08 µM (inconclusive)"
>>> observed_measurement("COc1ccc(NC(=O)N2CCCC3(CCN(C(=O)c4cc(C(F)(F)F)cc(C(F)(F)F)c4)CC3)C2)cc1")
"10 µM (inconclusive)"
>>> observed_measurement("Cc1ccc(Oc2ncc(CN3CCOCC3)s2)cc1")
"20 µM (inconclusive)"
>>> observed_measurement("Cc1cc2nc(C3CCCN(C(S)=Nc4ccccc4)C3)[nH]c2cc1C (stereo not given)")
"0.141 µM (inconclusive)"
>>> observed_measurement("COc1ccc(NC(=O)N2CCCC3(CCN(C(=O)c4cccc(F)c4)CC3)C2)cc1")
"15.8 µM (inconclusive)"
>>> observed_measurement("CCCC(=O)N1c2ccccc2C(N(C(C)=O)c2ccccc2)CC1C (stereo not given)")
"0.891 µM (inconclusive)"

----------
Target: Polyadenylate-binding protein 1 (Homo sapiens)
Sequence (P11940 whole entry, the tested form may be a part): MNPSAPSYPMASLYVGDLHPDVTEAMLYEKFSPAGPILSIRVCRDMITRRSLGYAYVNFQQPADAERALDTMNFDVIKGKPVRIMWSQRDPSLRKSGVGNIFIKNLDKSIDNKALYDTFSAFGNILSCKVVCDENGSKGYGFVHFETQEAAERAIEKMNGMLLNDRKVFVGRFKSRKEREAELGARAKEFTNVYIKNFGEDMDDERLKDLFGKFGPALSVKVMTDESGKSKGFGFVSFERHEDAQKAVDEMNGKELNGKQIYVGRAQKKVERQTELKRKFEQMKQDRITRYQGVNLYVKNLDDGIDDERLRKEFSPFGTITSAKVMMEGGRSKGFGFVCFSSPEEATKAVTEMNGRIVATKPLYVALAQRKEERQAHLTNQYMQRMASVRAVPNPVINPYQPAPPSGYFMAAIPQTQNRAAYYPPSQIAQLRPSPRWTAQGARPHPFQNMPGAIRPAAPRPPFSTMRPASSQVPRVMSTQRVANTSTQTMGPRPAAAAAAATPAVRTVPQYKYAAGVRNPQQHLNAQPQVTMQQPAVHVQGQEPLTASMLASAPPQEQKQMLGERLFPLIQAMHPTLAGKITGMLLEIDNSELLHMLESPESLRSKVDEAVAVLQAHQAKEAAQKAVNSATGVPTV
Experiment: MLLE domain peptide-binding blockers, IC50 – biochemical, fluorescence polarization, FITC-PAM2 peptide, dose response (AID 602259)
Format: functional
Settings: read-out: IC50_Mean
Activity calls are given as the source filed them.
Measured IC50 of individual entries
property.label: IC50

>>> observed_measurement("CC(=O)Nc1cc(-c2ccccc2N(C)C)cn2c(-c3ccc(F)c(Cl)c3)cnc12")
"> 66 µM (inactive)"
>>> observed_measurement("O=C(O)c1ccccc1Nc1cc(Cl)c2nonc2c1[N+](=O)[O-]")
"> 66 µM (inactive)"
>>> observed_measurement("CC1CN(C(=S)c2cccc([N+](=O)[O-])c2)CC(C)O1 (stereo not given)")
"> 66 µM (inactive)"
>>> observed_measurement("CC1=C(C(=O)O)N2C(=O)C(NC(=O)c3ccn(C)n3)C2SC1 (stereo not given)")
"> 66 µM (inactive)"
>>> observed_measurement("N=C(N)NC(=S)Nc1ccc(Cl)cc1")
"> 66 µM (inactive)"

----------
Tested on: Streptococcus sp. 'group A'
Assay: Streptococcus pyogenes SK(-)GAS viability under kanamycin – luminescence, BacTiterGlo, confirmation, counter-screen for streptokinase expression inhibitor project, dose response (AID 1900)
Assay type: functional, organism-based
Active and inactive are the calls of the source.
Measured EC50 of individual entries
property.label: EC50

>>> observed_measurement("CCOC(=O)N1CCN(C(=O)c2ccc3c(c2)NC(=O)/C(=C/c2ccccc2)S3)CC1")
"1.48 µM (active)"
>>> observed_measurement("COc1ccc(CNC(=O)Cc2csc(NC(=O)Nc3ccccc3OC)n2)cc1")
"> 150 µM (not active)"
>>> observed_measurement("Cc1nn2c(N3CCN(C(=O)c4ccco4)CC3)cc(C(C)(C)C)nc2c1-c1ccccc1")
"3.59 µM (active)"
>>> observed_measurement("CC(C)(C)c1cc(NCCCn2ccnc2)n2ncc(-c3ccc(Cl)cc3)c2n1")
"1.91 µM (active)"
>>> observed_measurement("COc1cc(/C=C/c2ccc3cccc(O)c3n2)c(Br)cc1O")
"0.865 µM (active)"
>>> observed_measurement("O=C(Nc1ccc(F)cc1)N1CCCCCC1")
"> 150 µM (not active)"
>>> observed_measurement("CC(C)N=C(S)NC(c1ccccc1)(c1ccccc1)c1ccccc1")
"6.6 µM (active)"
>>> observed_measurement("COc1ccc(O)c(C(=O)c2cc(SCC(=O)O)c3nc4sc5c(c4c(=O)n3c2)CCCC5)c1")
"2.67 µM (active)"
>>> observed_measurement("C/C(=N/NC(=O)c1cc(-c2ccccc2)nc2c(Cl)cccc12)c1cccnc1")
"> 150 µM (not active)"
